- STUDY TARGET: human FXR (NR1H4) (Homo sapiens)
- ASSAY PROCEDURE: Human FXR (NRIH4) Assay, luciferase reporter
- TEST SETTINGS: CHO reporter cells expressing human NR1H4, luciferase, 22 hours incubation
MEASUREMENT TYPE: EC50

Challenge: Report EC50 for O=C(O)c1cc(F)c2nc(NC3C4CCC3CC(OCc3c(-c5ccccc5OC(F)(F)F)noc3C3CC3)C4)sc2c1 (centres unmarked) please.
Response given: < 25 nM

Challenge: Fill in the blank: the reported EC50 of N#Cc1ccc(NC2C3CCC2CC(OCc2c(-c4ccccc4OC(F)(F)F)noc2C2CC2)C3)nc1 (centres unmarked) is ____.
Response given: 25 to 500 nM

Challenge: Tell me the measured EC50 of N#Cc1cc(F)cc2nc(NC3C4CCC3CC(OCc3c(-c5ccccc5OC(F)(F)F)noc3C3CC3)C4)cnc12 (centres unmarked) , please.
Response given: < 25 nM

Challenge: Give its EC50 value. Item: CC(C)Oc1cc(CO)cc2sc(NC3C4CCC3CC(OCc3c(-c5ccccc5OC(F)(F)F)noc3C3CC3)C4)nc12 (centres unmarked)
Response given: < 25 nM

Challenge: Which EC50 is reported for this compound? CC(C)Oc1cc(C(=O)O)cc2sc(N[C@H]3C[C@@H]4C[C@H]3C[C@@H]4OCc3c(-c4c(Cl)cccc4Cl)noc3C3CC3)nc12
Response given: < 25 nM

###

pEC50: recorded values
- STUDY TARGET: human FXR (NR1H4) (Homo sapiens, UniProt Q96RI1)
- Sequence (Q96RI1 1-486): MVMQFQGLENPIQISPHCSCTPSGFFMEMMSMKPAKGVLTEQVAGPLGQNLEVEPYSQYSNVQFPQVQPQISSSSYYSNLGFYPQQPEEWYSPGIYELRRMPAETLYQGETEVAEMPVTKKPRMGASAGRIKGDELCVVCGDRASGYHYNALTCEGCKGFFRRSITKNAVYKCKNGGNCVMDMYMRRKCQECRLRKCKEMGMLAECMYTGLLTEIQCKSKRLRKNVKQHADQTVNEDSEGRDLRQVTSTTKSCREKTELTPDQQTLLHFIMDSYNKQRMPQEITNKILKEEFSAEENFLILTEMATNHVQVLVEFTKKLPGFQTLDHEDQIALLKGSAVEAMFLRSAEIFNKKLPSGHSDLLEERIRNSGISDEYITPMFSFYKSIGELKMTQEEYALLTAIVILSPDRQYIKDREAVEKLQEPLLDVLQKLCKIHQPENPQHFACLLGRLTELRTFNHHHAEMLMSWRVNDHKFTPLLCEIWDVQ
- ASSAY PROCEDURE: Human FXR (NRIH4) Assay, luciferase reporter
- TEST SETTINGS: CHO reporter cells expressing human NR1H4, luciferase, 22 hours incubation
pEC50: −log10 of the molar value.

Challenge: I have this molecule here, O=S(=O)(NC1C2CCC1CC(OCc1c(-c3ccccc3OC(F)(F)F)noc1C1CC1)C2)c1cccc2cnccc12 (stereo not drawn) , and I need its recorded pEC50.
Response given: > 7.60

Challenge: Returns the measured pEC50 for the input molecule. Input: O=C(O)c1cccc(SC2C3CCC2CC(OCc2c(-c4ccccc4OC(F)(F)F)noc2C2CC2)C3)c1 (stereo not drawn)
Response given: 6.30 to 7.60

Challenge: What does the record list as pEC50 for CC(C)Oc1cc(C(C)(C)O)cc2sc(NC3C4CCC3CC(OCc3c(-c5ccccc5OC(F)(F)F)noc3C3CC3)C4)nc12 (stereo not drawn) ?
Response given: > 7.60
